Values were extracted from patent US20250361268A1.

- System: RAW264.7 cell line
- Method notes: Cytokine inhibition ability: LPS-induced cytokine gene expression in RAW264.7 macrophages
- Format: cell-based, mouse
- Measurement parameters: grade of reduction rate of gene expression, peptide 100 nM, LPS 200 ng/mL, 6 hours
- Description: The present inventors observed the cytokine inhibition ability of the immunomodulatory peptide candidates prepared according to one example of the present invention. Specifically, to confirm whether the peptides reduce inflammatory responses in cells, changes in cytokine gene expression in cells upon inflammation was measured. […]
Peptide text beside a SMILES is read from it.
Value type: Cytokine inhibition ability TNFα

>>> val("CSCC[C@H](NC(=O)[C@H](CCCNC(=N)N)NC(C)=O)C(=O)N[C@@H](CCCNC(=N)N)C(=O)N[C@@H](Cc1ccc(O)cc1)C(=O)N[C@@H](CCCCN)C(=O)N[C@H](C(=O)N[C@H](CCSC)C(N)=O)C(C)C [Peptide 6] (HELM PEPTIDE1{[ac].R.M.R.Y.K.V.[dM].[am]}$$$$V2.0)")
"A (81%-100%)"
>>> val("CSCC[C@H](NC(=O)[C@@H](N)CCCNC(=N)N)C(=O)N[C@@H](CCCNC(=N)N)C(=O)N[C@@H](Cc1ccc(O)cc1)C(=O)N[C@@H](Cc1c[nH]c2ccccc12)C(=O)N[C@@H](Cc1ccc(O)cc1)C(=O)N[C@H](CCSC)C(N)=O [Peptide 81] (HELM PEPTIDE1{R.M.R.Y.W.Y.[dM].[am]}$$$$V2.0)")
"A (81%-100%)"
>>> val("CSCC[C@H](NC(C)=O)C(=O)N[C@@H](CCCCN)C(=O)N[C@@H](Cc1ccc(O)cc1)C(=O)N[C@@H](CCCCN)C(=O)N[C@H](C(=O)N[C@H](CCSC)C(N)=O)C(C)C [Peptide 18] (HELM PEPTIDE1{[ac].M.K.Y.K.V.[dM].[am]}$$$$V2.0)")
"A (81%-100%)"

----------
- System under test: FPR1 (Homo sapiens)
- Sequence (P21462 whole entry, species assumed): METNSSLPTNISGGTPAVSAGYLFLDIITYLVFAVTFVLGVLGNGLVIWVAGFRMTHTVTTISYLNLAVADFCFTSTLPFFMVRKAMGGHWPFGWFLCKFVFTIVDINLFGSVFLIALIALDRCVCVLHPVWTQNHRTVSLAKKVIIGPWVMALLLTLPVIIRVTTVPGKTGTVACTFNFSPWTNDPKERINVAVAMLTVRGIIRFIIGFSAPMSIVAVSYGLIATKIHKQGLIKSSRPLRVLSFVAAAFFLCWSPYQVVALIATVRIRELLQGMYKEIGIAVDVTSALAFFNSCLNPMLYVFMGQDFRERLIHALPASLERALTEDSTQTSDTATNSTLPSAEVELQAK
- Method notes: Change in calcium activity by peptide, FPR1 activation effect
- Measurement parameters: calcium activity (Fura-2), graded per Table 3, read-out: EC50 for [Ca^2+] FPR1
pEC50: −log10 of the molar value. Peptide text beside a SMILES is read from it.
Some compounds, each annotated with its measured pEC50.
Value type: pEC50

>>> val("CCCCCCCC(=O)N[C@@H](CCCNC(=N)N)C(=O)N[C@@H](Cc1c[nH]c2ccccc12)C(=O)N[C@@H](CCCNC(=N)N)C(=O)N[C@@H](Cc1ccc(O)cc1)C(=O)N[C@@H](CCCCN)C(=O)N[C@@H](Cc1ccc(O)cc1)C(=O)N[C@H](CCSC)C(N)=O [Peptide 34] (HELM PEPTIDE1{[CCCCCCCC(=O)[*:2]].R.W.R.Y.K.Y.[dM].[am]}$$$$V2.0)")
"< 5.00"
>>> val("CCCC(=O)N[C@@H](Cc1c[nH]cn1)C(=O)N[C@@H](CCCCN)C(=O)N[C@@H](Cc1ccc(O)cc1)C(=O)N[C@@H](Cc1c[nH]c2ccccc12)C(=O)N1CCC[C@H]1C(=O)N[C@H](CCSC)C(N)=O [Peptide 151] (HELM PEPTIDE1{[CCCC(=O)[*:2]].H.K.Y.W.P.[dM].[am]}$$$$V2.0)")
"5.00 to 6.00"
>>> val("CCCC(=O)N1CCC[C@H]1C(=O)N[C@@H](CCSC)C(=O)N[C@@H](CCCCN)C(=O)N[C@@H](Cc1ccc(O)cc1)C(=O)N[C@@H](CCCCN)C(=O)N[C@H](C(=O)N[C@H](CCSC)C(N)=O)C(C)C [Peptide 27] (HELM PEPTIDE1{[CCCC(=O)[*:2]].P.M.K.Y.K.V.[dM].[am]}$$$$V2.0)")
"< 5.00"
>>> val("CSCC[C@@H](NC(=O)[C@H](Cc1ccc(O)cc1)NC(=O)[C@H](CCCCN)NC(=O)[C@H](Cc1ccc(O)cc1)NC(=O)[C@H](CCCNC(=N)N)NC(=O)[C@H](Cc1c[nH]c2ccccc12)NC(=O)[C@@H](N)CCCNC(=N)N)C(N)=O [Peptide 32] (HELM PEPTIDE1{R.W.R.Y.K.Y.[dM].[am]}$$$$V2.0)")
"< 5.00"
>>> val("CSCC[C@@H](NC(=O)[C@H](Cc1ccc(O)cc1)NC(=O)[C@H](CC(C)C)NC(=O)[C@H](Cc1ccc(O)cc1)NC(=O)[C@H](CCCNC(=N)N)NC(=O)[C@H](Cc1c[nH]c2ccccc12)NC(=O)[C@@H](N)CCCNC(=N)N)C(N)=O [Peptide 154] (HELM PEPTIDE1{R.W.R.Y.L.Y.[dM].[am]}$$$$V2.0)")
"< 5.00"
>>> val("CSCC[C@@H](NC(=O)[C@H](Cc1ccc(O)cc1)NC(=O)[C@H](Cc1c[nH]c2ccccc12)NC(=O)[C@H](Cc1ccc(O)cc1)NC(=O)[C@H](CCCNC(=N)N)NC(=O)[C@H](Cc1c[nH]c2ccccc12)NC(=O)[C@@H](N)CCCNC(=N)N)C(N)=O [Peptide 77] (HELM PEPTIDE1{R.W.R.Y.W.Y.[dM].[am]}$$$$V2.0)")
"< 5.00"
